# Tested target: Flpin-293-PDE4B2 cells (Homo sapiens, UniProt Q07343)
# Sequence (Q07343 1-564 isoform Q07343-2): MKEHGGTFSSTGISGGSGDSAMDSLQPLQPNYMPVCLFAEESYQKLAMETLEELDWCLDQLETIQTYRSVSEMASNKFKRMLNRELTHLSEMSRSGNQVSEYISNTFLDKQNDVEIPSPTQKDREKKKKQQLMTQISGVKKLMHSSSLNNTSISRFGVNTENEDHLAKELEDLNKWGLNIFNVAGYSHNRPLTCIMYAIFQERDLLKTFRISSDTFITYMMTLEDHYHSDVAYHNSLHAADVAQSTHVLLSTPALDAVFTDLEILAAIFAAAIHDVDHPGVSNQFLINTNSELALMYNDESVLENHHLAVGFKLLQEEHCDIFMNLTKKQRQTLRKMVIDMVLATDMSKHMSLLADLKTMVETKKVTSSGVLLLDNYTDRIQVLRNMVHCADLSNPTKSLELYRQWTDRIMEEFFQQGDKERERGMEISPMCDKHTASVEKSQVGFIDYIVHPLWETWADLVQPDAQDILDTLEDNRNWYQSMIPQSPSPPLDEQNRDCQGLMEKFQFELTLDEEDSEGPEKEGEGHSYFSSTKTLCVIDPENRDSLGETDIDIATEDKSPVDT
# Test method notes: cell-based
# Details: read-out: Cell Inhibition % @1 nM, 1 nM, Flpin-293-PDE4B2 cells
Metric name: inhibition at 0.001 µM (%)

a = COc1nn(C)cc1Nc1nc(N2CCc3cc(N4CCCC4)ccc3[C@@H]2C)nc2c1[S+]([O-])CC2 (some centres unmarked)
b = C[C@H]1c2ccc(N3CCCC3)cc2CCN1c1nc2c(c(N[C@@H]3CC[C@H]3O)n1)[S+]([O-])CC2 (some centres unmarked)
In the pair a and b , the larger recorded inhibition at 0.001 µM belongs to which? Identify your selection by its label.
a
(a: 11.7%, b: 7.33%)

1 = CS(=O)(=O)c1ccc2c(c1)CCN(c1nc3c(c(NC4(CO)CCC4)n1)[S+]([O-])CC3)C2 (centres unmarked)
2 = [O-][S+]1CCc2nc(N3CCc4cc(N5CCCC5)ccc4C3)nc(NC3(CO)CC3)c21 (centres unmarked)
3 = CO[C@H]1CCN(c2ccc3c(c2)CCN(c2nc4c(c(NC5(CO)CCC5)n2)[S+]([O-])CC4)C3)C1 (some centres unmarked)
Output the entries ranked by inhibition at 0.001 µM from maximum down to minimum. Write the labels, ordered according to the request.
2, 1, 3
(2: 24.7%, 1: 14%, 3: 7.66%)

A = [O-][S+]1CCc2nc(N3CCc4cc(N5CCCC5C(F)(F)F)ccc4C3)nc(NC3(CO)CCC3)c21 (centres unmarked)
B = [O-][S+]1CCc2nc(N3CCc4cc(N5CCCC5)ccc4C3)nc(NC3(CO)CCC3)c21 (centres unmarked)
When their inhibition at 0.001 µM values are compared, which is larger, A or B ? I would appreciate it if you answered with the label of your choice.
A

A = [O-][S+]1CCc2nc(N3CC[C@@H]4c5ccc(F)cc5OC[C@H]4C3)nc(NC3(CO)CCC3)c21 (some centres unmarked)
B = Cn1nc(Cl)c2c3c(cnc21)CN(c1nc2c(c(NC4(CO)CCC4)n1)[S+]([O-])CC2)CC3 (centres unmarked)
Among A and B , which shows a numerically higher inhibition at 0.001 µM result? // output: label of the selected item
A

---

# Tested target: PDE4B2 (Homo sapiens)
# Sequence (Q07343 1-564 isoform Q07343-2, species assumed): as the sequence (Q07343 1-564 isoform Q07343-2) above
# Test method notes: biochemical
# Details: read-out: PDE4B2 Enzyme Inhibition % @10 nM
Metric name: inhibition at 0.01 µM (%)

Compound: [O-][S+]1CCc2nc(N3Cc4ccc(Cl)cc4C3)nc(NC3(CO)CCC3)c21 (centres unmarked)
Metric name: inhibition at 0.01 µM
Result units: %
Measured number: 72.3
--
Compound: [O-][S+]1CCc2nc(N3Cc4ccc(C(F)(F)F)cc4C3)nc(NC3(CO)CCC3)c21 (centres unmarked)
Metric name: inhibition at 0.01 µM
Result units: %
Measured number: 83.8
--
Compound: COc1ccc2c(c1)CCN(c1nc3c(c(NC4(CO)CCC4)n1)[S+]([O-])CC3)CC2 (centres unmarked)
Metric name: inhibition at 0.01 µM
Result units: %
Measured number: 98.4
--
Compound: [O-][S+]1CCc2nc(N3CCc4ccsc4C3)nc(NC3(CO)CCC3)c21 (centres unmarked)
Metric name: inhibition at 0.01 µM
Result units: %
Measured number: 74.5

a = Cn1nc2c(c1Cl)CN(c1nc3c(c(NC4(CO)CCC4)n1)[S+]([O-])CC3)CC2 (centres unmarked)
b = [O-][S+]1CCc2nc(N3CCc4ccc(Br)cc4CC3)nc(NC3(CO)CCC3)c21 (centres unmarked)
Higher inhibition at 0.01 µM between a and b ? Let me know the label of the one you choose.
b

---

# Tested target: Flpin-293-PDE4B2 cells (Homo sapiens)
# Test method notes: cell-based
# Details: read-out: Cell Inhibition % @1 nM, 1 nM, Flpin-293-PDE4B2 cells
Metric name: inhibition at 0.001 µM (%)

Consider the following illustrative entries.
Molecule: CC(C)(O)[C@@H]1CCN(c2ccc3c(c2)CCN(c2nc4c(c(NC5(CO)CCC5)n2)[S+]([O-])CC4)C3)C1 (stereo partly drawn) [Compound 173]
Result units: %
inhibition at 0.001 µM: 8.43

Molecule: [O-][S+]1CCc2nc(N3CCc4cc(N5CCCCC5)ccc4C3)nc(NC3(CO)CCC3)c21 (stereo not drawn) [Compound 143]
Result units: %
inhibition at 0.001 µM: 13.9

Molecule: N#CC1CCN(c2ccc3c(c2)CCN(c2nc4c(c(NC5(CO)CCC5)n2)[S+]([O-])CC4)C3)C1 (stereo not drawn) [Compound 159]
Result units: %
inhibition at 0.001 µM: 16.8

Molecule: C[C@H]1c2ccc(N3CCCC3)cc2CCN1c1nc2c(c(NC3(CO)CCCC3)n1)[S+]([O-])CC2 (stereo partly drawn) [Compound 221]
Result units: %
inhibition at 0.001 µM: 11.3

Molecule: C[C@H]1c2ccc(N3CCCC3)cc2CCN1c1nc2c(c(NC3(CO)COC3)n1)[S+]([O-])CC2 (stereo partly drawn) [Compound 200]
Result units: %
inhibition at 0.001 µM: 14.7

A = [O-][S+]1CCc2nc(N3CC[C@@H]4c5ccccc5OC[C@H]4C3)nc(NC3(CO)CCC3)c21 (stereo partly drawn) [Compound 83]
B = [O-][n+]1cc2c(c3ccc(Cl)cc31)CCN(c1nc3c(c(NC4(CO)CCC4)n1)[S+]([O-])CC3)C2 (stereo not drawn) [Compound 106]
C = [O-][S+]1CCc2nc(N3CCc4cc(N5CCC[C@H]5CO)ccc4C3)nc(NC3(CO)CCC3)c21 (stereo partly drawn) [Compound 132]
Parameters: sort_field (inhibition at 0.001 µM), sort_dir (desc). // respond by listing labels in the order requested
C, A, B
(C: 16.2%, A: 5.79%, B: 0.41%)

---

# Tested target: Flpin-293-PDE4B2 cells (Homo sapiens, UniProt Q07343)
# Test method notes: cell-based
# Details: read-out: Cell Inhibition % @1 nM, 1 nM, Flpin-293-PDE4B2 cells
Metric name: inhibition at 0.001 µM (%)

Completed entries (count: 5):
Compound: [O-][S+]1CCc2nc(N3CCc4cc(N5CC(F)(F)C5)ccc4C3)nc(NC3(CO)CCC3)c21 (stereo not shown)
inhibition at 0.001 µM / %: 3.67

Compound: CN1C[C@@H]2CCN(c3ccc4c(c3)CCN(c3nc5c(c(NC6(CO)CCC6)n3)[S+]([O-])CC5)C4)[C@@H]2C1 (stereo partly shown)
inhibition at 0.001 µM / %: 10.7

Compound: [O-][S+]1CCc2nc(N3CCc4cc(N5CCCC5)cc(F)c4C3)nc(NC3(CO)CCC3)c21 (stereo not shown)
inhibition at 0.001 µM / %: 3.68

Compound: [O-][S+]1CCc2nc(N3CCc4cnc(Cl)cc4C3)nc(NC3(CO)CCC3)c21 (stereo not shown)
inhibition at 0.001 µM / %: 1.99

Compound: CN(C)c1ccc2c(c1)CCN(c1nc3c(c(NC4(CO)CCC4)n1)[S+]([O-])CC3)C2 (stereo not shown)
inhibition at 0.001 µM / %: 19.8

1 = C[C@H]1c2ccc(Br)cc2CCN1c1nc2c(c(NC3(CO)CCC3)n1)[S+]([O-])CC2 (stereo partly shown)
2 = O=C(O)Cc1ccc(Nc2nc(N3CCc4cc(Cl)ccc4C3)nc3c2[S@+]([O-])CC3)cc1
Please let me know which one, 1 or 2 , has a lower measured inhibition at 0.001 µM value. Respond with the label that goes with your answer.
1

---

# Tested target: Flpin-293-PDE4B2 cells (Homo sapiens, UniProt Q07343)
# Test method notes: cell-based
# Details: read-out: Cell Inhibition % @10 nM, 10 nM, Flpin-293-PDE4B2 cells
Metric name: inhibition at 0.01 µM (%)

Compound: [O-][S+]1CCc2nc(N3CCc4c(ncc5cc(Cl)ccc45)C3)nc(NC3(CO)CCC3)c21 (stereo not drawn) [Compound 100]
Result units: %
Measured number: 47.7
--
Compound: [O-][S+]1CCc2nc(N3CC[C@H]4c5cnc(Cl)cc5OC[C@@H]4C3)nc(NC3(CO)CCC3)c21 (stereo partly drawn) [Compound 117]
Result units: %
Measured number: 17.3
--
Compound: Cn1cc(CNc2nc(N3CCc4cc(Cl)ccc4C3)nc3c2[S+]([O-])CC3)cn1 (stereo not drawn) [Compound 142]
Result units: %
Measured number: 34.8
--
Compound: CN1CC2CN(c3ccc4c(c3)CCN(c3nc5c(c(NC6(CO)CCC6)n3)[S+]([O-])CC5)C4)CC2C1 (stereo not drawn) [Compound 179]
Result units: %
Measured number: 51.5
--
Compound: [O-][S+]1CCc2nc(N3CCc4cc(N5CC[C@@H](O)C5)ccc4C3)nc(NC3(CO)CCC3)c21 (stereo partly drawn) [Compound 130]
Result units: %
Measured number: 57.9
--
Compound: [O-][S+]1CCc2nc(N3CCc4ccc(Cl)cc4C3)nc(NC3(CO)CCC3)c21 (stereo not drawn) [Compound 20]
Result units: %
Measured number: 14.2
--
Compound: O=C1CCCN1c1ccc2c(c1)CCN(c1nc3c(c(NC4(CO)CCC4)n1)[S+]([O-])CC3)C2 (stereo not drawn) [Compound 87]
Result units: %
Measured number: 31.3
--
Compound: CN1CC(Nc2nc(N3CCc4cc(Cl)ccc4C3)nc3c2[S+]([O-])CC3)CCC1=O (stereo not drawn) [Compound 136]
Result units: %
Measured number: 98.3

1 = [O-][S+]1CCc2nc(N3CCc4cc(N5CCC[C@H]5CO)ccc4C3)nc(NC3(CO)CCC3)c21 (stereo partly drawn) [Compound 132]
2 = CN1C[C@@H]2CCN(c3ccc4c(c3)CCN(c3nc5c(c(NC6(CO)CCC6)n3)[S+]([O-])CC5)C4)[C@@H]2C1 (stereo partly drawn) [Compound 162]
Among 1 and 2 , which shows a numerically higher inhibition at 0.01 µM result? // return label of chosen record
1
(1: 78.6%, 2: 52.8%)

P = CN1CCN(c2ccc3c(c2)CCN(c2nc4c(c(NC5(CO)CCC5)n2)[S+]([O-])CC4)C3)C1=O (stereo not drawn) [Compound 86]
Q = COC[C@@H](CO)Nc1nc(N2CCc3cc(N4CCCC4)ccc3C2)nc2c1[S+]([O-])CC2 (stereo partly drawn) [Compound 199]
R = [O-][S+]1CCc2nc(N3CCc4cc(N5CC6CC6C5)ccc4C3)nc(NC3(CO)CCC3)c21 (stereo not drawn) [Compound 145]
Arrange the 3 entries by inhibition at 0.01 µM so the values rise. Answer format: list of labels, ordered as asked.
Q, R, P
